B1: RHOBTB2 (parent)
chain: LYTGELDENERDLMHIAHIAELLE

Variants of: B1
Test: protein stability index of a GFP-peptide fusion (GPS, HEK-293T) (PSI 1-6); higher = more stable;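 further: lentivirally expressed fusions sorted by FACS into six bins by GFP to DsRed ratio, PSI derived from sequencing read proportions per bin multiplied by bin number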
Details: c terminus: a fixed tail appended
// protein stability index lookup, one value per entry
property name: protein stability index

chain sequence: LYTGELDENPRDLMHIAHIAELLE
measurement: 1.88
--
chain sequence: LYTGELDENERDLMLIAHIAELLE
measurement: 1.5
--
chain sequence: LYTGELDENERDLMHSAHIAELLE
measurement: 3.9
--
chain sequence: LYTWELDENERDLMHIAHIAELLE
measurement: 1.5
--
chain sequence: LYTGELEENERDLMHIAHIAELLE
measurement: 2.41
--
chain sequence: LYTGEMDENERDLMHIAHIAELLE
measurement: 2.56
--
chain sequence: LYTGELDENMRDLMHIAHIAELLE
measurement: 1.68
--
chain sequence: LYTGELDENERDLMHIAHIAEGLE
measurement: 3.6
--
chain sequence: LYTGELDENERDLMHIAHISELLE
measurement: 3.08
--
chain sequence: LYTGELRENERDLMHIAHIAELLE
measurement: 2.25
--
chain sequence: LYTGELDENERDLMHIAHIAQLLE
measurement: 2.32
--
chain sequence: LYTCELDENERDLMHIAHIAELLE
measurement: 1.87
--
chain sequence: LYTGELDENERDLMHIAHWAELLE
measurement: 2.28
--
chain sequence: LYTGELDENERDLMHIAHIAELLY
measurement: 2.04
--
chain sequence: LYTGECDENERDLMHIAHIAELLE
measurement: 2.91
--
chain sequence: LGTGELDENERDLMHIAHIAELLE
measurement: 3.25
--
chain sequence: LATGELDENERDLMHIAHIAELLE
measurement: 2.73
--
chain sequence: LYTGELDENERDLYHIAHIAELLE
measurement: 2.01
--
chain sequence: LYTGELDENERELMHIAHIAELLE
measurement: 2.47
--
chain sequence: LYTGELDENERDLMHIAHIAELLD
measurement: 2.94
--
chain sequence: LYTGELDENERDLMHIAHIASLLE
measurement: 1.7
--
chain sequence: LYTGELDENERDLMHIAHIAELLK
measurement: 2.12
--
chain sequence: LYTGELIENERDLMHIAHIAELLE
measurement: 1.77
